pIC50: −log10 of the molar value.
Literature compilation of pIC50 measurements on SIK1 (Homo sapiens, UniProt P57059).
Sequence (P57059 whole entry): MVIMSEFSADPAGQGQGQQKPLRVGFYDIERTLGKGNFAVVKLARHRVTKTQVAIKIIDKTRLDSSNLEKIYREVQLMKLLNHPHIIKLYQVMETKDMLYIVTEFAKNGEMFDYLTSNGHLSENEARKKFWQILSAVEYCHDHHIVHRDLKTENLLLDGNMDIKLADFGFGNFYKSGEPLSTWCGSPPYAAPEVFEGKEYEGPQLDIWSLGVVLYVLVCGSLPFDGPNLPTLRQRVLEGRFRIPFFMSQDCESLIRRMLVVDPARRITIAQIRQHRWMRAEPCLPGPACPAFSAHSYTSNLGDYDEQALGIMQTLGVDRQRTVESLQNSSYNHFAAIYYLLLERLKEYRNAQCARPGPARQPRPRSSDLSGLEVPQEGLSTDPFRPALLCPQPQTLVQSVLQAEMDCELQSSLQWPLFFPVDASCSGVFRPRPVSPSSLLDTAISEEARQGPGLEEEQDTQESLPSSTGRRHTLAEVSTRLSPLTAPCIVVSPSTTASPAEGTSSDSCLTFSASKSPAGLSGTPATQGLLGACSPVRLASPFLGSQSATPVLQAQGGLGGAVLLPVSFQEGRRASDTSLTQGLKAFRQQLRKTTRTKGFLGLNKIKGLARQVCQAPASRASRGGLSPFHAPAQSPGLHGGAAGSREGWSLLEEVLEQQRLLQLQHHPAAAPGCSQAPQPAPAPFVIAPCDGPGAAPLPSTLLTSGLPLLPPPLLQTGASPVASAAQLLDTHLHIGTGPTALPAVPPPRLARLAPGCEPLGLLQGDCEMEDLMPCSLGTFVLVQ
metric: pIC50

# given_smiles, test_target, metric, result
rows = [
    ("COc1c(F)cc(F)cc1-c1c[nH]c2ncc(-c3cnc(N4CCOCC4)s3)cc12", "SIK1 (Homo sapiens, UniProt P57059)", "pIC50", "< 6.00"),
    ("FC1(F)Oc2ccc(-c3c[nH]c4ncc(-c5cnn(C6CCNCC6)c5)cc34)cc2O1", "SIK1 (Homo sapiens, UniProt P57059)", "pIC50", "< 7.00"),
    ("COc1cc(-c2cnc3cc(OCCN4CCOC[C@@H]4C)ccn23)cc2c1C(=O)N(CC(F)(F)F)CC2", "SIK1 (Homo sapiens, UniProt P57059)", "pIC50", "6.30 to 7.00"),
    ("COc1cc(-c2c3c(OCC(F)F)cc(-c4cnn(C)c4)cc3nn2C)cc(OC(F)F)c1C(N)=O", "SIK1 (Homo sapiens, UniProt P57059)", "pIC50", 8.37),
    ("COc1cc(-c2cnc3cc(OCc4cncs4)ccn23)cc(OC(F)F)c1C(=O)NC1CC1", "SIK1 (Homo sapiens, UniProt P57059)", "pIC50", "7.00 to 8.00"),
    ("COc1cc(-c2cnc3cc(OCC4(C)CNC4)ccn23)cc2c1C(=O)N(CC(F)(F)F)CC2", "SIK1 (Homo sapiens, UniProt P57059)", "pIC50", "6.30 to 7.00"),
    ("Cc1nc(Nc2cnc3[nH]cc(-c4cccc(F)c4Cl)c3c2)sc1Cl", "SIK1 (Homo sapiens, UniProt P57059)", "pIC50", "< 7.00"),
    ("COc1cc(-c2c3c(OCCCO)cc(-c4cnn(C)c4)cc3nn2C)cc(OC(F)F)c1C(=O)N[C@@H]1C[C@@H]1F", "SIK1 (Homo sapiens, UniProt P57059)", "pIC50", 8.30),
]

---

Please find below IC50 measurements for SIK1 (Homo sapiens), combined from several publications.

# compound, IC50
records = [
    ("COc1cc(-c2cnc3cc(OCc4nc(C)no4)ccn23)cc(OC(F)F)c1C(=O)NC1CC1", "10 to 100 nM"),
    ("COc1cc(-c2cnc3cc(OC[C@H]4CNCC[C@@H]4O)ccn23)cc(OC(F)F)c1C(=O)NC1CC1 (racemic)", "10 to 100 nM"),
    ("COc1cc(-c2c3c(C(F)F)cc(-c4cnn(C)c4)cc3nn2C)cc(OC(F)F)c1C(=O)N[C@@H]1CC1(F)F", "9.8 nM"),
    ("COc1cc(-c2cnn3cc(OC(C)(C)CN4CC5(COC5)C4)ccc23)cc(OC(F)F)c1C(=O)N[C@@H]1C[C@@H]1F", "> 500 nM"),
    ("COc1cc(-c2cnc3cc(OCc4cncn4C)ccn23)cc2c1C(=O)N(CC(F)(F)F)CC2", "> 500 nM"),
    ("c1cnc(N2CCOCC2)c(-c2c[nH]c3nccc(-c4ccsc4)c23)c1", "> 100 nM"),
    ("COc1cc(-c2c3c(OCC(F)(F)F)cc(-c4cnn(C)c4)cc3nn2C)cc(OC(F)F)c1C(=O)N1CC(O)(C(F)(F)F)C1", "5.1 nM"),
]
